- procedure-details: Tested for the half life period at pH 5.0
- Assay type: ADME
measured-parameter: half-life (h)
A number alone suffices; assume h.

COc1cccc2c1C(=O)c1c(O)c3c(c(O)c1C2=O)C[C@@](O)(/C(C)=N/NC(=O)c1ccc(CN2C(=O)C=CC2=O)cc1)C[C@@H]3OC1CC(N)C(O)C(C)O1 (some centres not stated) = 30

Switching to the query record.
Tell me measured half-life for COc1cccc2c1C(=O)c1c(O)c3c(c(O)c1C2=O)C[C@@](O)(/C(C)=N/NC(=O)c1cccc(N2C(=O)C=CC2=O)c1)C[C@@H]3OC1CC(N)C(O)C(C)O1 (some centres not stated) please.
20
